B1: TPR 5TU (parent)
chain: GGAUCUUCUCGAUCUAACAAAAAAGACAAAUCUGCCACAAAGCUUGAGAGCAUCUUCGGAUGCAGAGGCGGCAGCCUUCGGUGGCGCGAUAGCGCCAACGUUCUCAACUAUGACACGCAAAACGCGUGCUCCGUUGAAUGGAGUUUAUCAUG

Variants of: B1
Test: polymerase ribozyme fitness, log enrichment relative to wild type (log ratio); higher = more active; in vitro selection for triplet polymerase activity
This sample holds only a part of the variants without activity.
polymerase ribozyme fitness (log ratio) reference
observable: polymerase ribozyme fitness (log ratio)

mutation_name	endpoint_result
U31C C43A A66C C79U C85A A120C G140U	≤ -4.2
G81A C85A C149U	-0.877
A19U A37C U135G	-3.82
A19G A23U C57G G84U C93G G94C A122U A142C	≤ -4.2
A17C C95A C103G C108G	≤ -4.2
G88U G117U A142C	≤ -4.2
C27U C43A C75U C96U C105A	≤ -4.2
U45A G88C A113C U134A	≤ -4.2
A39G G62A G94A A120U G143U	≤ -4.2
A40U C51U C93U	-1.15
G11U A73U G81A G83C G86U G126C G136C	≤ -4.2
A40C C54U G141U	0.7
C35A A52C U77C A147C	≤ -4.2
A24U U53A U55A G68C C76A C85G	≤ -4.2
U33G A39U C116A U130G	-3.98
G48U G59A C93U	-1.39
U7A G92U	-3.96
U45G C54A U55A C85G G133U	≤ -4.2
A47G G84C	-2.56
A16C U56C C87U	-2.13
A21C G25C C76G A137C U145G	≤ -4.2
A28U G50C C76U C85U C103A C118U U144G	≤ -4.2
A29G A52G	-4.08
A52G C93U C96U G136C A138G U146A	≤ -4.2
A24G C85A U146C	≤ -4.2
A21U A41C G86A G100U A110C	≤ -4.2
U53A C75G C76U U82A C95U G128A	≤ -4.2
A3C U4G G58C C93U C149U	-3.55
U33C C43U G126U	≤ -4.2
A23C C35G G58A C95A C99A C149U	≤ -4.2
G58C G94C	-0.872
A39G G141C	-2.65
A12U G92A A98G C125G G128U	≤ -4.2
G11U A40U G42C G84C G100U A107U U134G	≤ -4.2
U56C C87U A89G U101G	-2.81
C69G U77C C87U G140U	≤ -4.2
C35U G58C U90G U104A G126A U135A U145G	≤ -4.2
C14U G67A U151C	≤ -4.2
C27G G50A	-3.72
C43U C85A C87U G94C	≤ -4.2
A37U G88U G92C A122G G133U G143A A150U	-4.06
A28U G50A U55C U139G	≤ -4.2
A41C C87A C95U A115C U151G	≤ -4.2
A17G C43A C54U C93G	≤ -4.2
G70U A73U A89G C95G G141U	≤ -4.2
C18A U33A U56A G88A C114U U130A	≤ -4.2
C57A A64G A66G C118U A147C G152U	≤ -4.2
U13C C18A A40C U53A G83A	-2.56
G141A	0.689
U6G C10A A16G A20C U53A C54G A64U C85U G86A A113U U145C	≤ -4.2
G11U A19C U55A G71A A91C G100A U109G A122U	≤ -4.2
A37G G124A	-2.19
A22G C36G G92A A137G	≤ -4.2
A24U C93U A142C	-2.21
U13C C38G U53A U82G G92A C105G C114U G128C U151C	≤ -4.2
A39G U55A G71A G92C C96U C131U C149A	≤ -4.2
G34A U111C A113C G124U G152U	≤ -4.2
C38U A49C	≤ -4.2
A3U U7A C8A C63U U90G	≤ -4.2
A106G C118U	0.261
A26C U53A U56A C114U	-3.79
A17U G58A C76U C87A A120G G133U	≤ -4.2
A49G G50A U55A U146C	-1.98
U6G C75U	0.374
U9A G128C U139A	≤ -4.2
G58A C85A	-1.11
A23U C38A U45G G50C U56A C93G G117A	≤ -4.2
A121C C125U G143U	-2.41
A28U C79A A91U C108G U130G G143C	≤ -4.2
C8U G81U C95U	≤ -4.2
U33C U56C G59C C79A C95U C123A G140U	≤ -4.2
C38U U55A A60G C75G C76G A115U A122U C125G	≤ -4.2
A28C U151A	≤ -4.2
C8G A23U C27G A40G A49C C87U U104G U134G G140A	≤ -4.2
G11C G83A G141U	-0.379
U9G G34U C85A U139A	≤ -4.2
C93A C95U	-3.37
A40C A98U A122U	0.766
C54U U82C C95A G141U	-2.99
C114U C125U	-3.33
A24G A39G G67U G83A C85A U104G C105U G136A	≤ -4.2
C54A U61A C69U C125A	≤ -4.2
U45A G58C	-2.28
G83U U146A	-1.19
U7A A17U A19C C38U G58U G86A G92C	≤ -4.2
A39G A89G G92A G141C	-3.85
A37C C95U C103G C118G	≤ -4.2
C8G A17C C18G A41C A52U G83A G140U	≤ -4.2
G65C U90C	≤ -4.2
A22U C54U	0.174
U6G A20U A41U U44A U55G G83A G88U A98U A121G U145A	≤ -4.2

src = the RNAGym collection of RNA variant scans (doi:10.1073/pnas.2313332121)
